Each entry below lists one item and its recorded pKd value.
target.or.test.system: B2 bradykinin receptor (Oryctolagus cuniculus)
Sequence (Q28642 whole entry): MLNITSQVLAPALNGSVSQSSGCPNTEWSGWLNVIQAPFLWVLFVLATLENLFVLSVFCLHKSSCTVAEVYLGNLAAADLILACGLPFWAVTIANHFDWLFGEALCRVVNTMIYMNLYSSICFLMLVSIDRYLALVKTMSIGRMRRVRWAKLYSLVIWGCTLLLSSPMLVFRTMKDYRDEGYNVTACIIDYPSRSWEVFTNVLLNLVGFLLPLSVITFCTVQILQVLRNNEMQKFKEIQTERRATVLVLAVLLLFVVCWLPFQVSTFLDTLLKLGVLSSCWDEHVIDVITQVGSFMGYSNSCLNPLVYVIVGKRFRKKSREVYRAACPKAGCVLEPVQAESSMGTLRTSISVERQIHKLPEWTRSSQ
assay.remarks: In vitro antagonistic activity against kinin-induced rabbit jugular vein contraction.
pKd: −log10 of the molar value. Numbered stars: 1 amine (or outer) side, 2 acyl side, 3 side chain; on linkers, the order of the positions; unused ones are H or OH. Square brackets hold non-standard residues; d marks the D form. Peptide text beside a SMILES is read from it. * marks the point of attachment. Pentanoyl(5-guanidino) = NC(N)=NCCCCC(=O)*; NH(CH2)9CO = O=C(CCCCCCCCCN[*:1])[*:2]; Oic = O=C(O)[CH]1C[CH]2CCCC[CH]2N1; Tic = O=C(O)[CH]1Cc2ccccc2CN1; 2Thi = N[CH](Cc1cccs1)C(=O)O; X2 = N=C(N)NCCCCCC(=O)*; GABA = NCCCC(=O)O
recorded.endpoint: pKd

1. N=C(N)NCCCC(NC(=O)C1CC2CCCCC2N1C(=O)C1Cc2ccccc2CN1C(=O)C(Cc1cccs1)NC(=O)CCCCCCCCCN)C(=O)O (stereo not given) ({NH(CH2)9CO}-[2Thi][Tic][Oic]R-OH; configuration not given here) ... 6.33
2. N=C(N)NCCCCC(=O)NC(Cc1cccs1)C(=O)N1Cc2ccccc2CC1C(=O)N1C(C(=O)NC(CCCNC(=N)N)C(=O)O)CC2CCCCC21 (stereo not given) ({Pentanoyl(5-guanidino)}-[2Thi][Tic][Oic]R-OH; configuration not given here) ... 5.52
3. N=C(N)NCCCC(NC(=O)C1CC2CCCCC2N1C(=O)C1Cc2ccccc2CN1C(=O)C(Cc1ccccc1)NC(=O)CCCN)C(=O)O (stereo not given) (H-[GABA]F[Tic][Oic]R-OH; configuration not given here) ... 6.44
4. N=C(N)NCCCCCC(=O)NC(Cc1cccs1)C(=O)N1Cc2ccccc2CC1C(=O)N1C(C(=O)NC(CCCNC(=N)N)C(=O)O)CC2CCCCC21 (stereo not given) (X2-[2Thi][Tic][Oic]R-OH; configuration not given here) ... 5.47
5. N=C(N)NCCCC(NC(=O)C1CC2CCCCC2N1C(=O)C1Cc2ccccc2CN1C(=O)C(Cc1cccs1)NC(=O)CCCN)C(=O)O (stereo not given) (H-[GABA][2Thi][Tic][Oic]R-OH; configuration not given here) ... 6.60
